Source listed as PubChem BioAssay AID652057.

experiment: blockers of HIV-1 envelope-mediated cell-cell fusion – cherry-pick, dose response (AID 652057); conditions: HeLa-JRFL Env/CEM21 cell fusion, luciferase; series mostly up to 35 µM
Among all 1,400 compounds or so, about 1,000 (71%) were called active. The set was probably picked from earlier hits. Only a sample is shown. Potency and affinity values are given separately.
readoutLabel: activity change, negative = inhibition

1) Nc1c(S(=O)(=O)c2ccccc2)cnc2c(-c3ccc(F)cc3)cnn12    inactive
2) O=C(C[C@@H]1CC[C@@H](NC(=O)c2ccncc2)[C@H](CO)O1)NCCc1ccncc1    inactive
3) Cc1noc(C)c1S(=O)(=O)N(C)C[C@H]1Oc2ccc(NC(=O)Nc3ccccc3)cc2CC(=O)N([C@H](C)CO)C[C@H]1C    inactive
4) COc1ccccc1S(=O)(=O)n1cc(Cc2ccccc2)c(N)n1    inactive

Lab note: next compound to report on.
Form field: reported activity change, negative = inhibition of "CCN(C1CCCCC1)S(=O)(=O)c1ccc(S(=O)(=O)NCc2ccncc2)cc1"
inactive
